Entry source: PubChem BioAssay (NCI)

test system: MOLT-4 leukemia; assay: NCI-60 one-dose screen, 48 h (100 = growth as untreated, 0 = no growth, -100 = all killed); conditions: 10 µM unless noted
About 83,000 compounds went through this panel and 20% of them were active in at least one assay; those are over-represented in the sample as a whole. Activity calls are given as the source filed them. The calls were made as follows: active = growth percent below 10; inactive = the rest.
observationType: growth

Sample answers from the record:
>>> reading("CS(=O)(=O)c1nccc(-c2c(-c3ccc(F)c(OCCc4ccc(F)cc4)c3)nc3sccn23)n1")
"14.4% (inactive)"
>>> reading("C#CCOc1ccc(C(Nc2ccc(Cl)cc2)c2nnnn2C2CCCCC2)cc1 (centres undefined)")
"72.5% (inactive)"
>>> reading("Cc1csc(Nc2cccc(Nc3nc(C)cs3)c2)n1")
"70.8% (inactive)"
>>> reading("NS(=O)(=O)c1ccc(Nc2nc(N/N=C/c3ccc([N+](=O)[O-])cc3)nc(Nc3ccccc3)n2)cc1")
"11.9% (inactive)"
>>> reading("N/C(=N\\c1nc2c(Cl)cccc2s1)C(Cl)(Cl)Cl")
"92.1% (inactive)"

According to the records, this compound Cn1c2ccccc2c2c3c(c4c5ccc(Br)cc5oc4c21)C(=O)N(O)C3=O displays growth of 7.13% (active)

According to the records, this compound C/C(=N\NC(=S)Nc1ccc(Br)cc1)c1cc2ccccc2oc1=O displays growth of 18.1% (inactive)

According to the records, this compound COc1cc(/C=C/C(=O)c2ccc(N3CCN(C)CC3)cc2)ccc1F displays growth of 88.5% (inactive)

According to the records, this compound CCCC(=O)NC(c1cccnc1)c1cc(C(C)=O)c2cccnc2c1O (centres undefined) displays growth of 25.1% (inactive)

---

tested on: DU-145 prostate; experiment: NCI-60 one-dose screen, 48 h (100 = growth as untreated, 0 = no growth, -100 = all killed); conditions: 10 µM unless noted
This is part of a sample that, as a whole, favours compounds with a hit. Of some 83,000 tested, about 20% had one in any assay.
Kindly note that classification relies on growth with these boundaries: Low: < 30%; Medium: ≥ 30% and < 90%; High: ≥ 90%

// below: answered compounds
>>> grouplabel("C/C(=C(/c1ccc(O)cc1)c1ccc(OCCN2CCCC2)cc1)c1ccc(Cl)cc1")
"Medium"
>>> grouplabel("CCN1C(=O)N(CC)C2SC(N/N=C/c3ccccc3F)=NC21 (centres undefined)")
"Low"
>>> grouplabel("Cc1ccc(-c2cc(-c3ccc(N(C)C)cc3)n3c(n2)nc2ccccc23)cc1")
"Medium"
>>> grouplabel("CS(=O)(=O)c1ccc2c(c1)c1c(n2Cc2ccc(Cl)cc2)CCCC1")
"Medium"
>>> grouplabel("Brc1cccc(/C=N/Nc2nc(N/N=C/c3cccc(Br)c3)nc(N3CCOCC3)n2)c1")
"Low"

Exercise: Hi, small favor: classify COc1ccc(N2C(=O)c3cc(OC)c(OC)cc3NC2SCc2ccccc2)cc1 (centres undefined) by its growth when you get a moment.
Solution: High

Exercise: Hi, small favor: classify N#C/C(=C\c1ccc(Cl)cc1Cl)C(N)=O by its growth when you get a moment.
Solution: High

Exercise: Hi, small favor: classify COc1ccc(/C=N\NC(=O)c2ccc3nc(-c4ccc(Br)cc4)[nH]c3c2)cc1 by its growth when you get a moment.
Solution: Low

Exercise: Hi, small favor: classify O=C(Cn1cc(CN2C(=O)c3ccc([N+](=O)[O-])cc3C2=O)nn1)Nc1ccc(F)cc1Cl by its growth when you get a moment.
Solution: High

---

tested on: CCRF-CEM leukemia; assay: NCI-60 one-dose screen, 48 h (100 = growth as untreated, 0 = no growth, -100 = all killed); details: 10 µM unless noted
About 83,000 compounds went through this panel and 20% of them were active in at least one assay; those are over-represented in the sample as a whole. Calls of active or inactive are those of the source. The calls were made as follows: active = growth percent below 10; inactive = the rest.
Listing of recorded growth by entry.

>>> reading("CNC(=O)c1cc(Oc2ccc3nc(NC(=O)c4ccc(CN5CCN(C)CC5)c(C(F)(F)F)c4)sc3c2)ccn1")
"49.9% (inactive)"
>>> reading("Clc1ccc(-c2csc(N/N=C/c3nc4ccccc4n3C3CC3)n2)cc1")
"93.7% (inactive)"
>>> reading("O=c1[nH]c(CNc2ccc(NCc3c(-c4ccccc4)no[n+]3[O-])cc2)nc2c1cnn2-c1ccccc1")
"57.9% (inactive)"

Observed growth, CCRF-CEM leukemia, CN(c1ccc(Br)cc1)S(=O)(=O)c1ccc(-c2cnc(C3CC3)o2)cc1 : 18% (inactive)

Observed growth, CCRF-CEM leukemia, CC(C)SC1=NC(=C(C(=N1)NC2=ClC=CC=C2)C#N)C3=CC=CC=C3 : 63.4% (inactive)

Observed growth, CCRF-CEM leukemia, CCN(CC)c1ccc2cc(C(=O)NCCOCCOCCOCCn3cc(CCC(=O)Nc4ccc(C(=O)c5ccc(NC(=O)OC(C)(C)C)cc5)cc4)nn3)c(=O)oc2c1 : 19% (inactive)

Observed growth, CCRF-CEM leukemia, CCN1CCN(Cc2ccc(C(=O)Nc3nc4ccc(Oc5ccnc(C(=O)NC)c5)cc4s3)cc2C(F)(F)F)CC1 : 60.6% (inactive)

Observed growth, CCRF-CEM leukemia, CCOC(=O)c1ccc(N/C=C/C(=O)c2ccccc2)cc1 : 102% (inactive)

Observed growth, CCRF-CEM leukemia, COc1ccc(-c2nc3cc(Cl)c(Cl)cc3n2CC(=O)N=Nc2c(O)[nH]c3ccc(Br)cc23)cc1 : 39% (inactive)

Observed growth, CCRF-CEM leukemia, C#CCOc1ccc(C(Nc2ccc(Cl)cc2)c2nnnn2C2CCCCC2)cc1 (centres undefined) : 91% (inactive)

Observed growth, CCRF-CEM leukemia, Cn1c2ccccc2c2c3c(c4c5ccc(Br)cc5oc4c21)C(=O)N(O)C3=O : 14.6% (inactive)

Observed growth, CCRF-CEM leukemia, CC(=O)Nc1cccc(-n2cnc3cc(-c4ccc(O)cc4)ccc32)c1 : 23.6% (inactive)

Observed growth, CCRF-CEM leukemia, O=C(/C=C1\C=CN(CCCCO)c2ccccc21)n1ccc2ccccc21 : 102% (inactive)

Observed growth, CCRF-CEM leukemia, O=C(c1cccc(F)c1)n1ccc2cc(NC(=S)Nc3cccnc3)ccc21 : 83.1% (inactive)

Observed growth, CCRF-CEM leukemia, CC(c1ccccc1)N1C(=O)/C(=C/c2csc(C#N)n2)SC1=S (centres undefined) : 10.5% (inactive)

Observed growth, CCRF-CEM leukemia, NS(=O)(=O)c1ccc(Nc2nc(N/N=C/c3ccc(C(F)(F)F)cc3)nc(Nc3ccccc3)n2)cc1 : 12% (inactive)

Observed growth, CCRF-CEM leukemia, Cc1nn(-c2ccc(Cl)cc2)c(C)c1N=Nc1ccc2oc(=O)ccc2c1 : 82% (inactive)

Observed growth, CCRF-CEM leukemia, Clc1ccccc1/C=C/c1nn2c(-c3ccncc3)nnc2s1 : 97.6% (inactive)

Observed growth, CCRF-CEM leukemia, NNC(=O)c1sc2nc(-c3cnccn3)cc(-c3cccs3)c2c1N : 62.7% (inactive)

Observed growth, CCRF-CEM leukemia, CS(=O)(=O)c1ccc2c(c1)c1c(n2Cc2ccc(Cl)cc2)CCCC1 : 81.9% (inactive)

Observed growth, CCRF-CEM leukemia, CS(=O)(=O)c1nccc(-c2c(-c3ccc(F)c(OCc4ccc(F)cc4)c3)nc3sccn23)n1 : 79.4% (inactive)

Observed growth, CCRF-CEM leukemia, COc1cc(/C=C/C(=O)c2ccc(N3CCN(C)CC3)cc2)ccc1F : 53.8% (inactive)

Observed growth, CCRF-CEM leukemia, Cc1ccc(NC(=O)c2ccc(CN3CCN(C)CC3)c(C(F)(F)F)c2)cc1Oc1ccc(-c2[nH]nc3ncnc(N)c23)cc1 : 8.05% (active)

Observed growth, CCRF-CEM leukemia, C#CCOc1ccc(C(Nc2cc(Cl)ccc2Cl)c2nnnn2C2CCCCC2)cc1 (centres undefined) : 85.8% (inactive)

Observed growth, CCRF-CEM leukemia, NS(=O)(=O)c1ccc(Nc2nc(N/N=C/c3ccc([N+](=O)[O-])cc3)nc(Nc3ccccc3)n2)cc1 : 11.8% (inactive)

Observed growth, CCRF-CEM leukemia, CC1(C)CC[C@]2(C(=O)N3CCCN(CC#N)CC3)CC[C@]3(C)C(=CC[C@@H]4[C@@]5(C)CC[C@H](O)C(C)(C)[C@@H]5CC[C@]43C)[C@H]2C1 : 18.2% (inactive)

Observed growth, CCRF-CEM leukemia, CC(C)(C)n1nnnc1C(Nc1nccs1)c1cc2cccc3ccc4cccc1c4c32 (centres undefined) : 98.7% (inactive)

---

tested on: COLO 205 colon; assay: NCI-60 one-dose screen, 48 h (100 = growth as untreated, 0 = no growth, -100 = all killed); conditions: 10 µM unless noted
Compounds without any hit were thinned out: in the full panel of roughly 83,000, 20% have a hit. Calls of active or inactive are those of the source. The calls were made as follows: active = growth percent below 10; inactive = the rest.
Listing of recorded growth by entry.

Sample answers from the record:
>>> reading("C=C1C(=O)O[C@@H]2C[C@@H](C)[C@H](OC)CC(=O)[C@](C)(OC(C)=O)C[C@H](OC(=O)/C(C)=C\\C)[C@@H]12")
"-7.69% (active)"
>>> reading("CCOC(=O)/C(F)=C/C1CC1C1CCCCC1 (stereo unspecified)")
"110% (inactive)"
>>> reading("O=C1[C@H]2Cc3c([nH]c4ccccc34)[C@@H](c3ccc(Cl)cc3)N2C(=O)CN1C1CCN(Cc2c(Cl)cccc2Cl)CC1")
"103% (inactive)"

According to the records, this compound COc1ccc([C@@H]2[C@@H](O)C(=O)N2c2cc(OC)c(OC)c(OC)c2)cc1 displays growth of -78.7% (active)

According to the records, this compound CC(C)=CCc1c(O)c(CC=C(C)C)c2c(c1O)C(=O)C1=C[C@@H]3C[C@H]4C(C)(C)O[C@@](C/C=C(\C)C(=O)O)(C3=O)[C@@]14O2 displays growth of -94.2% (active)

According to the records, this compound CC1(C)CC[C@]2(C(=O)N3CCCNCC3)CC[C@]3(C)C(=CC[C@@H]4[C@@]5(C)CCC(=O)C(C)(C)[C@@H]5CC[C@]43C)[C@H]2C1 displays growth of 115% (inactive)

According to the records, this compound C=C(C)[C@@H]1CC[C@]2(C(=O)ON)CC[C@]3(C)[C@H](CC[C@@H]4[C@@]5(C)C/C(=C/c6ccc(Br)cc6)C(=O)C(C)(C)[C@@H]5CC[C@]43C)[C@@H]12 displays growth of 88% (inactive)

According to the records, this compound Cc1ccc(/C=C/CC(=O)Nc2ccc(C(=O)Nc3ccc(F)cc3N)cc2)cn1 displays growth of 49.4% (inactive)

According to the records, this compound COc1ccc(OC)c([C@H]2c3[nH]c4ccccc4c3C[C@H]3C(=O)N(CCCCCCC(=O)NO)CC(=O)N23)c1 displays growth of 86.4% (inactive)

According to the records, this compound N#C/C(=C\c1ccc(Cl)cc1Cl)C(N)=O displays growth of 117% (inactive)

According to the records, this compound O=C1[C@H]2Cc3c([nH]c4ccccc34)[C@H](c3ccc(Cl)cc3)N2C(=O)CN1C1CCN(Cc2c(Cl)cccc2Cl)CC1 displays growth of 54.8% (inactive)

According to the records, this compound Oc1ccc(CSc2nnc(-c3ccc(Oc4ccccc4)cc3)o2)c2cccnc12 displays growth of 78.2% (inactive)

According to the records, this compound CN1CCN(Cc2ccc(NC(=O)c3cncc(C#Cc4cnc5ccc(O[C@H]6CCOC6)nn45)c3)cc2C(F)(F)F)CC1 displays growth of -89.1% (active)

According to the records, this compound COc1ccc(-c2nc3cc(Cl)c(Cl)cc3n2CC(=O)N=Nc2c(O)[nH]c3ccccc23)cc1 displays growth of 55% (inactive)

According to the records, this compound Oc1ccc(CSc2nnc(-c3ccncc3)n2-c2ccccc2)c2cccnc12 displays growth of 102% (inactive)

According to the records, this compound CN(C)c1ccc(/C=N/Nc2nc(N/N=C/c3ccc(N(C)C)cc3)nc(N3CCOCC3)n2)cc1 displays growth of 108% (inactive)
